- STUDY_SYSTEM: T1, human Nectin-4 extracellular antigen hNectin-4-His (human, UniProt Q96NY8 32-349)
- T1 construct: C-terminal 8xHis tag included
- T1 sequence: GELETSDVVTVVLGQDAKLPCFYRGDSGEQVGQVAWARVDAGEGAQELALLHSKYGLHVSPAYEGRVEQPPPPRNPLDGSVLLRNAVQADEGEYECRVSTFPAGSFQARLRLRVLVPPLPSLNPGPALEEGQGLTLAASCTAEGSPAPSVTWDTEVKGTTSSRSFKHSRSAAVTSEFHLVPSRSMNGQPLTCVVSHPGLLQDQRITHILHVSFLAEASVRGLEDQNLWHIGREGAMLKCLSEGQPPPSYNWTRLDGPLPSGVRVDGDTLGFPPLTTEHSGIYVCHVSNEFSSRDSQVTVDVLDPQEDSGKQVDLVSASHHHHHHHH
- ASSAY_SUMMARY: SPR, antibody on Protein A chip, 1:1 fit
- Text: In this study, the affinity of the antibodies for the human Nectin-4 extracellular antigen was detected by surface plasmon resonance (SPR) technique (BIAcore: GE Healthcare, T200).
ASSAY_ENDPOINT: koff

Item: antibody 10F4-1F8 (antibody, human IgG1, kappa, V domains shown) VH: EVQLVESGGGLVQPGGSLRLSCAASGYTFTDYDMSWVRQAPGKGLEWVSSIITDGGGAFYADSVKGRFTISRDNSKNTLYLQMNSLRAEDTAVYYCAREYSDVVDYVSVRTPLDYWGQGTLVTVSS VL: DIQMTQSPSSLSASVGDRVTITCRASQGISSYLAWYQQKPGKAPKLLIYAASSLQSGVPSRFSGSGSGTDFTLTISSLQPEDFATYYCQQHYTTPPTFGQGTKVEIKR | koff: 0.000237 s⁻¹
